- Test system: Setaria faberi (SETFA)
- PROCEDURE TEXT: Pre-emergence herbicidal glasshouse test, Setaria faberi
- Type: in vivo
- MEASUREMENT SETUP: Setaria faberi, 312 h, rate 250 g/ha, evaluated after 13 days, scale 100 = total damage to plant, 0 = no damage
OBSERVATION TYPE: pest or weed control at 250 g/ha (%)
Numbers only, in %.

>>> df
                                   molecule             test_system  observed
0  CCc1cc(-c2ccccc2)ccc1C1=C(O)[C@@]2(C)CC[C@H](O2)C1=O (racemic)  Setaria faberi (SETFA)        20
1  CCc1cc(-c2ccc(Cl)c(OC)c2)ccc1C1=C(O)[C@@]2(C)CC[C@H](O2)C1=O  Setaria faberi (SETFA)        80
2  CCc1cc(-c2ccc(Cl)cc2)ccc1C1=C(O)[C@@]2(C)CC[C@H](O2)C1=O (racemic)  Setaria faberi (SETFA)        70
3  CCc1cc(-c2ccc(Cl)c(F)c2Cl)ccc1C1=C(O)[C@@]2(C)CC[C@H](O2)C1=O (racemic)  Setaria faberi (SETFA)        50
4  CCc1cc(-c2ccc(Cl)nc2)ccc1C1=C(O)[C@@]2(C)CC[C@H](O2)C1=O  Setaria faberi (SETFA)        90
5  CCc1cc(-c2ccc(Cl)cc2)ccc1C1=C(O)[C@@]2(C)C=C[C@H](O2)C1=O  Setaria faberi (SETFA)         0

Quick one: give me pest or weed control at 250 g/ha for each item below, same order please.
1. CCc1cc(-c2ccc(Cl)c(F)c2F)ccc1C1=C(O)[C@@]2(C)CC[C@H](O2)C1=O (racemic)
2. CCc1cc(-c2ccc(Cl)c(C(F)(F)F)c2)ccc1C1=C(O)[C@@]2(C)CC[C@H](O2)C1=O
3. Cc1cc(-c2ccccc2)cc(C)c1C1=C(O)C(C)(C)OC(C)(C)C1=O

[out]
0
50
90
